Data origin, for the record: ChEMBL document CHEMBL3433997

Reported inhibition by item:
Molecular target: Hexose transporter 1 (Plasmodium falciparum)
Assay: ST_JUDE_LEISH: Cytotoxicity at 2uM final concentration against transgenic Leishmania Mexicana promastigotes LmPfHT that are glucose transport deficient and complemented with the Plasmodium falciparum hexose transporter. Activity is measured by DNA content using SYBR green in vitro
Assay type: functional
Numbers only here, please. The scale is %.

Consider the following illustrative entries.
>>> measured_value("CN(CCON1C(=N)N=C(N)NC1(C)C)c1ccccc1")
0.33
>>> measured_value("CN1CCN(CCCN(Cc2ccc(-c3cccc(CNCc4ccc5c(c4)OCO5)c3)cc2)C(=O)Nc2ccccc2)CC1")
4.92
>>> measured_value("CN1CCN(c2ccnc3ccc(NC(=O)Nc4ccc(-c5ccccc5)cc4)cc23)CC1")
2.25
>>> measured_value("CCOc1cc(C)ccc1C1CCN(CCN2CCC(CNC(=O)c3ccc(-c4ccc(C(F)(F)F)cc4)cc3)CC2)CC1")
2.7
>>> measured_value("CC(C)Oc1ccc2c(c1)OC(c1ccccc1)(C(F)(F)F)NC2=O (centres undefined)")
12.2

Ask | Lab note: record inhibition of O=C(CN1CCC(NCc2cnc(-c3ccc(Cl)cc3)[nH]2)CC1)N1CCc2ccccc21 tested on Hexose transporter 1 (Plasmodium falciparum).
Reply | 0.65

Ask | Lab note: record inhibition of CCc1c(CCNCCCCCCNCCc2ccc(Br)cc2)ccc(OC)c1OC tested on Hexose transporter 1 (Plasmodium falciparum).
Reply | 10.9

Ask | Lab note: record inhibition of CC(C)N1CCC(N(Cc2ccc(-c3ccc(C(F)(F)F)cc3)cc2)C(=O)Cn2c(CCc3cccc(F)c3F)nc(=O)c3cccnc32)CC1 tested on Hexose transporter 1 (Plasmodium falciparum).
Reply | 1.97

Ask | Lab note: record inhibition of Cc1cccc(Nc2nccc(Nc3cccc(C(=O)NCCN4CCOCC4)c3)n2)c1 tested on Hexose transporter 1 (Plasmodium falciparum).
Reply | 1.2

Ask | Lab note: record inhibition of Cc1cc(NC(=O)NCCN2CCC(NC(=O)c3cccc(Br)c3)C2)c2ccccc2n1 (centres undefined) tested on Hexose transporter 1 (Plasmodium falciparum).
Reply | 0.24

Ask | Lab note: record inhibition of O=c1cc(NCCCNCc2ccc3c(c2)OC(F)(F)O3)[nH]c2ccccc12 tested on Hexose transporter 1 (Plasmodium falciparum).
Reply | 0.16

Ask | Lab note: record inhibition of COC(=O)c1cccc(CN(CCC(O)(C(F)(F)F)C(F)(F)F)C(=O)CC2CCCC2)c1 tested on Hexose transporter 1 (Plasmodium falciparum).
Reply | 1.44

Ask | Lab note: record inhibition of c1ccc(COc2ccccc2COc2ccccc2-c2ccc3cccnc3n2)cc1 tested on Hexose transporter 1 (Plasmodium falciparum).
Reply | -0.32

Ask | Lab note: record inhibition of OC1CCCN(Cc2ccc(-c3cccc(-c4nc5ccccc5[nH]4)c3)cc2)C1 (centres undefined) tested on Hexose transporter 1 (Plasmodium falciparum).
Reply | 1.57

Ask | Lab note: record inhibition of O=C(COC(=O)c1cccc(S(=O)(=O)N2CCc3ccccc32)c1)NNC(=O)c1cccs1 tested on Hexose transporter 1 (Plasmodium falciparum).
Reply | 4.13

Ask | Lab note: record inhibition of CCCc1cc2c3c(N)nc(N)nc3ccc2n1C(CC)CC tested on Hexose transporter 1 (Plasmodium falciparum).
Reply | 54.9
